assay: NBI-750142 concentration in cynomolgus monkey plasma by LC-MS/MS; format: in vivo, cynomolgus monkeys (Macaca fascicularis); conditions: cynomolgus monkey, intravenous, 0.52 mg/kg, EC865, 0.52 mg/kg i.v.
assay-readout: concentration at 30 min (ng/mL)
The figure you give is taken to be in ng/mL; do not add the unit.

INPUT: Any idea what concentration at 30 min was measured for "COc1cc2c(cc1OC)[C@H]1CN(C)[C@H](CC(C)(C)C)CN1CC2" ?
OUTPUT: 45.1

###

assay: NBI-750142 concentration in cynomolgus monkey plasma by LC-MS/MS; format: in vivo, cynomolgus monkeys (Macaca fascicularis); settings: cynomolgus monkey, intravenous, 0.52 mg/kg, EC865, 0.52 mg/kg i.v.
assay-readout: concentration at 60 min
A bare number is not enough; add the unit after it.

INPUT: Any idea what concentration at 60 min was measured for "COc1cc2c(cc1OC)[C@H]1CN(C)[C@H](CC(C)(C)C)CN1CC2" ?
OUTPUT: 36.9 ng/mL
